From: patent US8569344B2

target: human α1G T-type channels (Homo sapiens); construct: expressed in transfected cells; host or cells: HEK 293; test: T-type calcium channel block, whole cell patch clamp in HEK cells (α1G); type: cell-based; conditions: HEK cells, patch clamp, mainly non-inactivated protocol; values above 10 μM shown as 10 μM, below 0.30 μM shown as 0.30 μM; read-out: T-type Calcium Channel Block α1G IC50
Sequence (O43497 whole entry): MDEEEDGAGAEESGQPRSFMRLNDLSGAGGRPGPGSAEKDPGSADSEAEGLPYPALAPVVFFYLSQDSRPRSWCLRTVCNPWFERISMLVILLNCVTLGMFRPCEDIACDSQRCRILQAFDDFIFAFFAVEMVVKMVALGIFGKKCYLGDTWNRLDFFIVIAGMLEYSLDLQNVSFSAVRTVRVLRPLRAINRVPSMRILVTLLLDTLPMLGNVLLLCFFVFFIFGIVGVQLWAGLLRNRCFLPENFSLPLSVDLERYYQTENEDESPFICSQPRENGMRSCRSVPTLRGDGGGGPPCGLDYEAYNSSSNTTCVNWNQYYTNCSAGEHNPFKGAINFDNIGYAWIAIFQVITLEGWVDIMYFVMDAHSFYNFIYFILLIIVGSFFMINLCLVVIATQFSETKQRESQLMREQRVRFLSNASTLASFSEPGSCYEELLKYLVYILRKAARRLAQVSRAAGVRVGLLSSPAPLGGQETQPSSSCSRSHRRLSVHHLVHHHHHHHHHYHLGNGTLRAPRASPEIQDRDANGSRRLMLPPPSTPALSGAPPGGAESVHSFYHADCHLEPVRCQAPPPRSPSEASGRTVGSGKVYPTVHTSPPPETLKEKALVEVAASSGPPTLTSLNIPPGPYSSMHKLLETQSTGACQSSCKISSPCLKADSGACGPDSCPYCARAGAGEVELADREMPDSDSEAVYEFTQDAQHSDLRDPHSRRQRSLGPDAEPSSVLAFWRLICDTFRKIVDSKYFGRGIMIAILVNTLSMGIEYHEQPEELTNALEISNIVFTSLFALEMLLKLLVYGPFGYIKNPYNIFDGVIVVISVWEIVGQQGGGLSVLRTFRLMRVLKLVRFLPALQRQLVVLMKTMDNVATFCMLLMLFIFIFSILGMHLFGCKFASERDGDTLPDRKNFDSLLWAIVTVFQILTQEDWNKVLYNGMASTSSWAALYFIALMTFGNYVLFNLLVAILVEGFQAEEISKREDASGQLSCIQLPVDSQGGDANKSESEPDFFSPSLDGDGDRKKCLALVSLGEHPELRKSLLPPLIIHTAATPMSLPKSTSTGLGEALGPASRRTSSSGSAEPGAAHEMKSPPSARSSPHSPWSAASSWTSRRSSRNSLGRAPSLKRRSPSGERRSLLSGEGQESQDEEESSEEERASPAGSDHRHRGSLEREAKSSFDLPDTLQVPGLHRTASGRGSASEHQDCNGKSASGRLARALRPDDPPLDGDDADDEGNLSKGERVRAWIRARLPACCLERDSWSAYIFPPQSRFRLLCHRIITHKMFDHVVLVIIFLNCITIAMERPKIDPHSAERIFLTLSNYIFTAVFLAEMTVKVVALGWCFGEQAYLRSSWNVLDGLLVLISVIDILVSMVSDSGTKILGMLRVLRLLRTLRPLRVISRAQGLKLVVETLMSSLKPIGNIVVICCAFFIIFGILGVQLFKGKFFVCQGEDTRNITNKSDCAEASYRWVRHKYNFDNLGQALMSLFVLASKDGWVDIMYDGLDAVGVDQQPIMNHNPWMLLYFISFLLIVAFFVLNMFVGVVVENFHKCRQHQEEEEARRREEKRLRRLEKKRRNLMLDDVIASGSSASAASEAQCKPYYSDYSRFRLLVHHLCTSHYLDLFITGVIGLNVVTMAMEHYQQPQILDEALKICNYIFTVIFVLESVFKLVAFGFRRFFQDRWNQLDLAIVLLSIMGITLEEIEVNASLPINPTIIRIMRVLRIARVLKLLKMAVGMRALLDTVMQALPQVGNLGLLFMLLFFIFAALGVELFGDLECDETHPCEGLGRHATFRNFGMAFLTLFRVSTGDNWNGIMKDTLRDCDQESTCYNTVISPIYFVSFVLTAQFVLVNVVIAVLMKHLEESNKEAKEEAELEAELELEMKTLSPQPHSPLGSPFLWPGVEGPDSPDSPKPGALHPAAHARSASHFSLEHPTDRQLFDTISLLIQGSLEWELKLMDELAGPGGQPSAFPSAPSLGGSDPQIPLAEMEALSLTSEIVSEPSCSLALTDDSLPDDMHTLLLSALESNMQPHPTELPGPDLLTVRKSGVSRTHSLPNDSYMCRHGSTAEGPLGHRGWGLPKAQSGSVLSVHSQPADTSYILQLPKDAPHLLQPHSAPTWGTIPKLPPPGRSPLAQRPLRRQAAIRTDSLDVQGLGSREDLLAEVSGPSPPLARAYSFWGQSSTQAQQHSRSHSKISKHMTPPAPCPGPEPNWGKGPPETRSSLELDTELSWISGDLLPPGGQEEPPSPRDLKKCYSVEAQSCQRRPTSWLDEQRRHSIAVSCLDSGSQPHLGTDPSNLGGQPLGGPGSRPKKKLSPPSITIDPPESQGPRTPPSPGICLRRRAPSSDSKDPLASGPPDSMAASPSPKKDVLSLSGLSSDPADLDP
measurement_type: IC50 (nM)

[A] CC(C)(F)CNC(=O)CN1CCC(CNC(=O)c2cc(C(F)(F)F)cc(C(F)(F)F)c2)CC1
[B] CC(C)(C)C(=O)NCCN1CCC(CNC(=O)c2cc(F)cc(Cl)c2)CC1
[C] CC(C)(C)C(N)CN1CCC(CC(=O)NC(c2cccc(F)c2)c2cccc(F)c2)CC1 (stereo not shown)
Sort (3 molecules) by IC50: min first. List the labels in the requested order.
A, B, C

[P] O=C(NCC1CCN(CCNC(=O)C2(C(F)(F)F)CC2)CC1)c1cccc(Cl)c1
[Q] CS(=O)(=O)NC1(CN2CCC(CNC(=O)c3cc(C(F)(F)F)cc(C(F)(F)F)c3)CC2)CCCC1
[R] O=C(NCC1CCN(C(=O)CN2CCCC(C(F)(F)F)C2)CC1)c1cc(F)cc(C(F)(F)F)c1 (stereo not shown)
List by increasing IC50. List the labels in the requested order.
P, Q, R
(P: 590 nM, Q: 1010 nM, R: 2500 nM)
